assayRemarks: yeast display, Sf9 membrane polyspecificity reagent, FACS + sequencing; frameworks hold sequencing errors

- sequence: "QVQLVESGGGLVQAGGSLRLSCAASGGTFAVNVMGWYRQAPGKERELVAAITSNGGSTYYADSVKGRFTISRDNAKNTVYLQMNSLTPEDTAVYYCAAEGSGWYTGHYYYWGQGTQVTVSS"
  polyreactivity (PSR sort gate): "low polyreactivity"
- sequence: "QVQLVESGGGLVQAGGSLRLTCAASGRIFIYYAMGWYRQAPGKERELVAAISWGGGRTYYADSVKGRFTISRDNAKNTVYLQINSLKPEDTAVYYCAAGVYTGQHEYDYWGQGTQVTVSS"
  polyreactivity (PSR sort gate): "low polyreactivity"
- sequence: "QVQLVESGGGLVQAGGSLRLSCAASGRIFAYYVMGWYRQGPGKERELVASISSGGGTYYADSVKGRFTISRDNAKNTVYLQMNSLKPEDTAVYYCAARWRRYVYPDGHLFWYDYWGQGTQVTVSS"
  polyreactivity (PSR sort gate): "high polyreactivity"
- sequence: "QVQLVDSGGGLVQAGGSLRLSCAASGRISSQYAMGWYRQAPGKERELVAAISTSGDRTYYADSVKGRFTISRDNAKNTVYLQMNSLKPEDTAVYYCAKDGPYTYGRDISEYWGQGTQVTVSS"
  polyreactivity (PSR sort gate): "low polyreactivity"
- sequence: "QVQLVESGGGLVQAGGSLRLSCAASGSIFYTNVMGWYRQAPGKERELVAAISSRGGSTYYADSVKGRFTISRDNAKNTVYLQMNSLKPEDTAVYYCAARFLHYYPTRGYTYDYWGQGTQVTVSS"
  polyreactivity (PSR sort gate): "high polyreactivity"

* * *

assayRemarks: yeast display, Sf9 membrane polyspecificity reagent, FACS + sequencing; frameworks hold sequencing errors

- sequence: "QVHLVESGGALVQAGGSLRLSCAASGSTFWFYAMLWYRQAPGKERELVAAITRSAGSTYYADSVKGRFTISRDNAKYTVFLQMNSLKPEDTAVYYCAAQRESLYGGFDSWGQGTQVTVSS"
  polyreactivity (PSR sort gate): "low polyreactivity"
- sequence: "QDQLEESGGGLVQEGGSLRLSCAATGFTLAFNAMGWYRQAPGKERELVASITSSSGSTYYADSVKGRFTISRDNAKITVFLQMNSLKPEDTAVYYCARDLAIPQVLSQPIFGYWGQGTQVTVSS"
  polyreactivity (PSR sort gate): "low polyreactivity"
- sequence: "QVQLVESGGGLVQAGGSLRLSCAASGITFAVYTMGWYSQAPGKERELVAAITGSGGRTYYADSVKGRFTISRDNAKNTVYLQMNSLKPEDTAVYYCNAVQRSSRQTFEYWGQGTQVTVSS"
  polyreactivity (PSR sort gate): "low polyreactivity"
- sequence: "QVQLVESGGGLVQAGGSLRLSCAASGRTFSAYAMGWYRQAPGKERELVAAISTNVGSTYYADSVKGRFTISRDTAKNTVYLQMNSLKPEDTAVYYCAKSWTLSGWNYYYWGQGTQVTVSS"
  polyreactivity (PSR sort gate): "high polyreactivity"
- sequence: "QVQLVESGGGLVQAGGSLRLSCAASGRTFDNYAMGWYRQAPGKERELVAAISSSGGRTYYADSVKGRFTISRDNAKNTVYLQMNSLKPEDTAVYYCAAVWPVYRTHPGMDYWGQGTQVTVSS"
  polyreactivity (PSR sort gate): "high polyreactivity"
- sequence: "QVQLVESGGGLVQAGGSLRLSCAASGRTIGVYAMGWYRQAPGKERELVAAISWSGGTTYYADSVKGRFTISRDNAKNTVYLQMNSLKPEDTAVYYCDADSYTEVDYWGQGTQVTVSS"
  polyreactivity (PSR sort gate): "low polyreactivity"
- sequence: "QVQLVESGGGLVQAGGSLRLSCAASGPIIDFYAMGWSRKAPGKERELVAAISWRGGSTYYADSVKGRFTISRDNAKNSVYLQMNSLKPEDTAVYYCANRFGPRYYWGQGTQVTVSS"
  polyreactivity (PSR sort gate): "low polyreactivity"
- sequence: "QVQLVESGGGLVQAGGSLRLSCAASGLIFRTYTMGWYRQAPGKERELVATITRRGGTTYYADSVKGRFTISRDNAKNTVYLQMNSLKPEDTAVYYCAKSPYYTWKYDYWGQGTQVTVSS"
  polyreactivity (PSR sort gate): "high polyreactivity"
- sequence: "QVQLVESGGGLVQAGGSLRLSCAASGSIFRGYTMGWYRQAPGKERELVATISWSGGSTYYADTVKGRFTISRDNAKNTVYLQMNSLKREDTAVYYCDARNQCRGYYWGEGTQVTVSS"
  polyreactivity (PSR sort gate): "high polyreactivity"
- sequence: "QVQLVESGGGIVQAGGSLRLSCAASGRTFYRNAMGWYIHAPGKERELVAAITSGGSTYYADSVKGRFTISRDNAKNSGYLQMNCLKPEDTAVYYCAALRHALRYDYWGQGTQVTVSS"
  polyreactivity (PSR sort gate): "low polyreactivity"
- sequence: "QVQLVESGGGLVQAGGSLRLSCAASGFTLEYYAMGWYRQAPGKERELVAAITNGASTNYADSVKGRFTISRDNAKNTVYLQMNSLKPEDTAVYYDYWGQGTQVTVSS"
  polyreactivity (PSR sort gate): "low polyreactivity"

* * *

assayRemarks: yeast display, Sf9 membrane polyspecificity reagent, FACS + sequencing; frameworks hold sequencing errors

- sequence: "QVQLVESGGCLVQAGGSLRLSCAASGFTFPGNAMGWYRQAPGKERELVAAMSASGGKTYYADSVKGRFTISRDNAKNTVYLQMNSLKPEDTAVYYCAAVVAFATGTYYYWGQGTQVTVSS"
  polyreactivity (PSR sort gate): "high polyreactivity"
- sequence: "QVQLVESGGGLVQAGGCLRLSCAASGRTFPRYAMGWYIQAPGKVRELVAVISFSGDSTSYADSVKGRFTISRDTAKNTVYIQMNSRKPEDTAVYYCIADYKSTVFRYSGSRNYWGQGTQVTVSS"
  polyreactivity (PSR sort gate): "low polyreactivity"
- sequence: "QDQLVESGGCLVQAGGSLRLSCAASGRIIIGYVMGWYRQAPVKERELVATISYSGGSTYADSVKGRFTISRDNAKNTVYLLMNSLKPEDTAVYYCNALFAGHKYYTVTSKYDYWGQGTQVTLSS"
  polyreactivity (PSR sort gate): "high polyreactivity"
- sequence: "QVQLVESGGGLVQAGGSLRLSCAASGIIFYPYAMGWYIQAPGKERELVAGISSSGGSTYYADSVKGRFTISRDNAKNTVYLQMNSLKPEDTAVYYCAVGGERGARIGSNHRGSRYDYWGQGTQVTVSS"
  polyreactivity (PSR sort gate): "high polyreactivity"
- sequence: "QVQLVESGGGLVQAGGSLRLSCAASGRIFLRTAMGWYRLAPAKERELVASIDSSGGSAYYADSVQGRFTISRDNAKNTVYLQMNSLKPEDTAVFYCNADAYGTPEFTSYAVRYDYGGQGTQVTVSS"
  polyreactivity (PSR sort gate): "low polyreactivity"
- sequence: "QVQLVESGGGLVQAVGSLRLSCAASGSTFLLNAMGWYRQAPGKEREFVAAITGNAGSTYYADSVKGRFTISRDNAKNTVYLQMNSLKPEDTAVYYCAAALPGYDGDYWGQGTQVTVSS"
  polyreactivity (PSR sort gate): "low polyreactivity"
- sequence: "QVQLVESGGGLVQAGGSLRLSCAASGSTFFTNAMAWYRQSPGKERELVASISFSGGRTYYADSVKGRFTISRDNAKNTVYLQMNSLKPEDTAVYYCAARRYRYTRYDYWGQGTQVTVSS"
  polyreactivity (PSR sort gate): "high polyreactivity"
- sequence: "QVQLVESGGGLVQAGGSLRLSCAASGSISNFYAMGWYRQAPGKEREFVAAISTRDGTKRFADSVKGRFTISRDNAKNTVYLQMNSLKPEDTAVYYCAAKGGGVWLYARIYSDYYWGQGTQVTVSS"
  polyreactivity (PSR sort gate): "low polyreactivity"
- sequence: "QVHLQESGGGLVQAGGSLRLSCAASGTISQEDWMGWYRQAPGKEREFVAAIGLGSNTNYADSLKGRFTISRDNAKNSVYLQKNSLKPEDTAVYYFAVSVWQYSDHVYRGQGTQVTVSS"
  polyreactivity (PSR sort gate): "low polyreactivity"
- sequence: "QVQLVESGGGLVQAGGSLRLTCAASGYTFYPYAMGWYRQAPGKERELVAAISWSGGSTYYADSVKGRFTISRDNAKNTVYLQMNSLKPEDTAVYYCNADSGWFGYDYWGKGTQVTVSS"
  polyreactivity (PSR sort gate): "low polyreactivity"
- sequence: "QVQLVESVGGLVQAGGSLRLSCAASGYTFYRYAMGWYRQAPGKESELVAGISRDGGSTYYADSVKGRFTISRDNAKNTVYLQMNSLKPEDTAVYYCAADKTRYRLGRDYWGQGTQVTVSS"
  polyreactivity (PSR sort gate): "low polyreactivity"
- sequence: "QVQLVESGGGLVQAGGSLRLSCAASGSTFALYAMGWYRQAPGKERELVAAITRGDRTYYADSVKGRFTISRDNAKNTVYLQMNSLKAEDSAVYYCAAGYFGLWVRYDYWGQGSQVTVSS"
  polyreactivity (PSR sort gate): "low polyreactivity"
- sequence: "QVQLVESGGGLVQAGGSLRLSYAASGSTFFFNALGWYRQAPGKERELVATISRDGSTNYADSVKGRFTISRDNAKNTVYLQINSLKPEDTAVYYCAAGWGWPYHQYDYWGQGTQVTVSS"
  polyreactivity (PSR sort gate): "low polyreactivity"
- sequence: "QVQLEESGGGLVQAGGSLRLSCAASGRISAKYAMGWYRKAPGKERELVASISWSGGSTYYADSVKGRFTISRDNAKNTVYLQMNSLKPEDTAVYYCAADLTQQRGVRGMDYWGQGTQVTVSS"
  polyreactivity (PSR sort gate): "low polyreactivity"
- sequence: "QVQLVESGGGLVQAGGSLRLSCAASGFTFEYYAMGWYRQAPGKERELVATITSGGSTYYADSVKGRFTISRDNAKNTVYLQMNSLKPDDTAVYYCITSSPWIEDYWGQGTQVTVSS"
  polyreactivity (PSR sort gate): "low polyreactivity"
- sequence: "QVQLVESGGGLVQAGGSLRLSCAASGRTFGYYAMGWYRQAPGKERELVAAISSRGGSTYYADSVKGRFTISRDNAKNTVYLQMNSLKPEDTAVYYCNTRWTNIHPRYDYWGQGTQVTVSS"
  polyreactivity (PSR sort gate): "high polyreactivity"
- sequence: "QVQLVESGGGLVQAGGSLRLSCAASGRIIGFYAMGRYRQAPGKERELFAAINTGGGTNYADSVKGRFTISRDNAKNTVYLQMNSLKPEDTAVYYCAARTYDYRARHKVGYWGQGTQVTVSS"
  polyreactivity (PSR sort gate): "high polyreactivity"
- sequence: "QVQLVESGGGLVQAGGSLRLSSAASGRIFGRYAMGWYRQAPGKERELVDAITCTGGTTYYADSVKGRFTISRDNAKNTVYLQMNSLKPEDTAVYYCAARQGYGIYGDYYYWGQGTHVTVSS"
  polyreactivity (PSR sort gate): "high polyreactivity"
- sequence: "QVQLVESGGGLVQAGGSLRLSCAASGSSFTNYGMGWYRQAPGKERELVAAISESGDTTYYADSVKGRFTISRDNAKNTVYLQMNSLKPEDTAVYYCNRAHGRSRYSRDYDSWGQGTQVTVSS"
  polyreactivity (PSR sort gate): "low polyreactivity"
- sequence: "QVQLVESGGGLVQAGGSLRLSCAASGFTFRYYVMGWYRQAPGNEREFVAAITWADGSTFYAVSVKGRFTISRDKAKNTDYLHMNSLKPEDTAVYYCAADYSRTYRAYDYWGQGTQVTVSS"
  polyreactivity (PSR sort gate): "low polyreactivity"
- sequence: "QVQLVESGGGLVQAGGSLRLSCAASGSIFYSYAMGWYRQAHGKERELVAAITSGDITYYADSVKGRFTISRDNAKNTVYLQMNSLKPEDTAVYYCAAESYAWWDKQFLYRYDYWGQGTQVTVSS"
  polyreactivity (PSR sort gate): "low polyreactivity"
